B1: LINE1-full (parent)
chain: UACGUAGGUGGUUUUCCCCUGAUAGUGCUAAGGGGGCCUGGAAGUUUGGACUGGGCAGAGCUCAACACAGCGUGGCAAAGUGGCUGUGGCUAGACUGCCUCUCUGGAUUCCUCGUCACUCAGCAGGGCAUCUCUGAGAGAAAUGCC

variants of: B1; assay: self-cleavage, relative activity (ratio to wild type); higher = more cleavage; in vitro, sequencing; the parent is a self-cleaving ribozyme
readout type: self-cleavage
Give bare numbers.

Consider the reported self-cleavage for these variants:
ordered residues	self-cleavage
UACGUAGGUGGUUUCCCCCUGAUAGUGCUAAGGGGGCCUGGAAGUUUGGACUGGGCAGAGCUCAACACAGCGUGGCAAAGUGGCCGUGGCUAGACUGCCUCUCUGGAUUCCUCGUCACUCAGCAGGGCAUCUCUGAGAGAAAUGCC [U15C U85C]	0.34
UACGUAGGAGGUUUUCCCCUGAUAGUGCUAAGGGGGUCUGGAAGUUUGGACUGGGCAGAGCUCAACACAGCGUGGCAAAGUGGCUGUGGCUAGACUGCCUCUCUGGAUUCCUCGUCACUCAGCAGGGCAUCUCUGAGAGAAAUGCC [U9A C37U]	0.63
UACGUAGGUGGGUUUCCCCUGAUAGUGCUAAGGGGGCCCGGAAGUUUGGACUGGGCAGAGCUCAACACAGCGUGGCAAAGUGGCUGUGGCUAGACUGCCUCUCUGGAUUCCUCGUCACUCAGCAGGGCAUCUCUGAGAGAAAUGCC [U12G U39C]	1.61

Parameters: items (list). Returns: self-cleavage for each item.
1. UACGUAGGUGGUUUUCCCCUGAUAGUGCUAAGGGGGCCUGGAAGUUUGGACUGGGCAGAGCUCAACACAGCGUGGCAAAGCGGCUGUGGCUAGACUGCCUCUCUGGAUUCCUCGUAACUCAGCAGGGCAUCUCUGAGAGAAAUGCC [U81C C116A]
2. UACGUAGGUGGUUUUCCCCAGAUAGUGCUAAGGGGGCCUGGAAGUUUGGACUGGGCAGAGCUCAACACAGCGUGGCAGAGUGGCUGUGGCUAGACUGCCUCUCUGGAUUCCUCGUCACUCAGCAGGGCAUCUCUGAGAGAAAUGCC [U20A A78G]
3. UACGUAGGUGGUUUUCCCCUGAUAGUGCUAAGGGGGCCUGGAAGUUUGGACUGGGCAGAGCUCAACACAGCGUGGCAAAGUGGCUGUGGCUAGACUGCCUCUCUGGAUUUCUCGUCACUCAGCAGAGCAUCUCUGAGAGAAAUGCC [C110U G126A]
4. UACGUAGGUGGUUUUCCCCUGAUAGUGCUAAGGGGGCCUGGAAGUUUGGACUGGGCAGAGCUCAACACAGCGUGGCAAAGUGGCUGUGGCUAGACCGCCUCUCUGGAUUCCUCGUCACGCAGCAGGGCAUCUCUGAGAGAAAUGCC [U96C U119G]
5. UACGUAGGUGGUUUUCCACUGAUAGUGCUAAGGAGGCCUGGAAGUUUGGACUGGGCAGAGCUCAACACAGCGUGGCAAAGUGGCUGUGGCUAGACUGCCUCUCUGGAUUCCUCGUCACUCAGCAGGGCAUCUCUGAGAGAAAUGCC [C18A G34A]
6. UACGUAGGUGGUUUUCCCCUGAUAGUGCUAAGGGGGCCUGGAAGUUUGGACUGGGAAGAGCUCAACACAGCGUGGCAAAGUGGCUGUGGCUAGACUGCCCCUCUGGAUUCCUCGUCACUCAGCAGGGCAUCUCUGAGAGAAAUGCC [C56A U100C]
7. UACGUAGGUGGUUUUCCCCUGAUAGUGCUAAGGGGGCCUGGAAGUUUGAACUGGGCAGAGCUCAACACAGCGUGGCAAAGUGGCUGUGGCUAGACUGCCUCUCUGGAUUCCUCGUCACUCACCAGGGCAUCUCUGAGAGAAAUGCC [G49A G122C]

1: 0.59; 2: 1.39; 3: 1.34; 4: 0.13; 5: 1.01; 6: 0.1; 7: 1.28

Parameters: items (list). Returns: self-cleavage for each item.
1. UACGUGGGUGGUUUUCCCCUGAUAGAGCUAAGGGGGCCUGGAAGUUUGGACUGGGCAGAGCUCAACACAGCGUGGCAAAGUGGCUGUGGCUAGACUGCCUCUCUGGAUUCCUCGUCACUCAGCAGGGCAUCUCUGAGAGAAAUGCC [A6G U26A]
2. UACGUAGGUGGUUUUCCCCUGAUAGUGCUAAGGGGGCCUGGAAGUUUGGACAGGGCAGAGCUCAACACAGCGUGGCAAAGUGGCUGUGGCUAGACUGCCUCUCUGGAUUCCUCCUCACUCAGCAGGGCAUCUCUGAGAGAAAUGCC [U52A G114C]
3. UACGUAGGUAGUUUUCCCCUGUUAGUGCUAAGGGGGCCUGGAAGUUUGGACUGGGCAGAGCUCAACACAGCGUGGCAAAGUGGCUGUGGCUAGACUGCCUCUCUGGAUUCCUCGUCACUCAGCAGGGCAUCUCUGAGAGAAAUGCC [G10A A22U]
4. UACGUAGGUGGUUUUCCCUUGAUAGUGCUAAGGGGGCCUGGAAGUUUGGACUGGGCAGAGCUCAACACAGCGUGGCAAAGUGGCUGUGGCUAGACUGCCUCUCUGGAUUCCUCGUUACUCAGCAGGGCAUCUCUGAGAGAAAUGCC [C19U C116U]

1: 0.68; 2: 1.34; 3: 1.55; 4: 0.9
